Target: T1, Rv0081 (Mycobacterium tuberculosis H37Rv, UniProt P9WMI7 1-114)
T1 sequence: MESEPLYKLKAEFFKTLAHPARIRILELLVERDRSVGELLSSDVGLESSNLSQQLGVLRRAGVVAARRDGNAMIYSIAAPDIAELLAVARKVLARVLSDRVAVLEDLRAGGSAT
Test: EMSA; 576 ng Rv0081
Settings: protein: recombinant; tags: His-tag (pET28b); chain copies: 2; blunt
Property: binding result

Known results for binders:
>  <Binder>
Fragment 3 (-153 to -104) (dsDNA) DNA 1: TGTCGATGGTTGTTCTCATCTGGTAACTCCTTTCCGCAGGCCGCAATTCAGCG DNA 2: CGCTGAATTGCGGCCTGCGGAAAGGAGTTACCAGATGAGAACAACCATCGACA

>  <binding result>
binds

$$$$
>  <Binder>
Fragment b (-54 to -17) (dsDNA) DNA 1: CACATGTACCCAGTGTTAACCTTCTAGTGCACTAGAAG DNA 2: CTTCTAGTGCACTAGAAGGTTAACACTGGGTACATGTG

>  <binding result>
no binding

$$$$
>  <Binder>
Fragment 1 (-53 to 0) (dsDNA) DNA 1: CACATGTACCCAGTGTTAACCTTCTAGTGCACTAGAAGGTCAAGGGGAGTCGC DNA 2: GCGACTCCCCTTGACCTTCTAGTGCACTAGAAGGTTAACACTGGGTACATGTG

>  <binding result>
binds

$$$$
>  <Binder>
Fragment 4 (-203 to -154) (dsDNA) DNA 1: GGATGGTCATAGTGGCGTCGGGCGCCAGGCCTGCGCGGGCACACGCGGTGCGG DNA 2: CCGCACCGCGTGTGCCCGCGCAGGCCTGGCGCCCGACGCCACTATGACCATCC

>  <binding result>
no binding

$$$$
>  <Binder>
Fragment 2 (-103 to -54) (dsDNA) DNA 1: GTATGGGCTCACCGAGATCAGGCTCGTCACGATCGCCCGCACTGCTGGCGGCT DNA 2: AGCCGCCAGCAGTGCGGGCGATCGTGACGAGCCTGATCTCGGTGAGCCCATAC

>  <binding result>
no binding

$$$$
>  <Binder>
Fragment c (-54 to -9) (dsDNA) DNA 1: CACATGTACCCAGTGTTAACCTTCTAGTGCACTAGAAGGTCAAGGG DNA 2: CCCTTGACCTTCTAGTGCACTAGAAGGTTAACACTGGGTACATGTG

>  <binding result>
no binding

$$$$

Next, consider the following binder.
[ask] Query: binding result; subject: Fragment a (-54 to -25) (dsDNA) DNA 1: CACATGTACCCAGTGTTAACCTTCTAGTGC DNA 2: GCACTAGAAGGTTAACACTGGGTACATGTG
[reply] no binding

The reported measurements were obtained from paper PMC6177252.
